# System tested: T1, RBFOX1 RRM (Homo sapiens, UniProt Q9NWB1 109-208)
# T1 sequence: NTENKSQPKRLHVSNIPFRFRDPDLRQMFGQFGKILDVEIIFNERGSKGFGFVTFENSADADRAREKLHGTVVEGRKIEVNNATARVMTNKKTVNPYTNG
# Assay procedure: EMSA; HiTS-Eq, 1 nM pool, 10 min; buffer printed only for the single-RNA assays: 10 mM Tris pH 7.5, 150 mM NaCl, 3.4 mM EDTA, 0.001% NP-40, 30 C
# Condition parameters: tags: His6 N-terminal (pET28a); label: 5' 32P
Over roughly 16,000 sequences, “ka relative to ugcaugu” has its median near 0.0091; the highest 2% begin near 0.032. This is one part of a sample in which the highest values are shown more often than they occur.
Overview of recorded binding signal for various binders

The cases that follow already have their binding signal on record.
Binder: UGUUUGG (DNA:RNA) RNA: GGGAGACCGGAAUUCAGAUUGUCCUGUUUGGUUAAAUCCCGUCGUAGCCACCA DNA 1: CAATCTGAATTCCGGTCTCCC DNA 2: TGGTGGCTACGACGGGATT
binding signal: 0.0271 KA relative to UGCAUGU
--
Binder: UAGUAAA (DNA:RNA) RNA: GGGAGACCGGAAUUCAGAUUGUCCUAGUAAAUUAAAUCCCGUCGUAGCCACCA DNA 1: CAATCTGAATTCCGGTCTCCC DNA 2: TGGTGGCTACGACGGGATT
binding signal: 0.00712 KA relative to UGCAUGU
--
Binder: UCACGAG (DNA:RNA) RNA: GGGAGACCGGAAUUCAGAUUGUCCUCACGAGUUAAAUCCCGUCGUAGCCACCA DNA 1: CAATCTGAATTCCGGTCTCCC DNA 2: TGGTGGCTACGACGGGATT
binding signal: 0.0108 KA relative to UGCAUGU
--
Binder: ACGCCGG (DNA:RNA) RNA: GGGAGACCGGAAUUCAGAUUGUCCACGCCGGUUAAAUCCCGUCGUAGCCACCA DNA 1: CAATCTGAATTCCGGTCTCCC DNA 2: TGGTGGCTACGACGGGATT
binding signal: 0.00777 KA relative to UGCAUGU
--
Binder: AUAAGGU (DNA:RNA) RNA: GGGAGACCGGAAUUCAGAUUGUCCAUAAGGUUUAAAUCCCGUCGUAGCCACCA DNA 1: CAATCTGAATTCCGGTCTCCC DNA 2: TGGTGGCTACGACGGGATT
binding signal: 0.00979 KA relative to UGCAUGU

Provide only the value of recorded binding signal for AGACUGC (DNA:RNA) RNA: GGGAGACCGGAAUUCAGAUUGUCCAGACUGCUUAAAUCCCGUCGUAGCCACCA DNA 1: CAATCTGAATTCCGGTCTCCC DNA 2: TGGTGGCTACGACGGGATT
0.0128 KA relative to UGCAUGU

Provide only the value of recorded binding signal for UGCCAAA (DNA:RNA) RNA: GGGAGACCGGAAUUCAGAUUGUCCUGCCAAAUUAAAUCCCGUCGUAGCCACCA DNA 1: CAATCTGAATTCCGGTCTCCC DNA 2: TGGTGGCTACGACGGGATT
0.0103 KA relative to UGCAUGU

Provide only the value of recorded binding signal for UGCCUCG (DNA:RNA) RNA: GGGAGACCGGAAUUCAGAUUGUCCUGCCUCGUUAAAUCCCGUCGUAGCCACCA DNA 1: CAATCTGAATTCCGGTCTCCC DNA 2: TGGTGGCTACGACGGGATT
0.0235 KA relative to UGCAUGU

Provide only the value of recorded binding signal for GUGGGCU (DNA:RNA) RNA: GGGAGACCGGAAUUCAGAUUGUCCGUGGGCUUUAAAUCCCGUCGUAGCCACCA DNA 1: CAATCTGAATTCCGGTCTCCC DNA 2: TGGTGGCTACGACGGGATT
0.0216 KA relative to UGCAUGU

Provide only the value of recorded binding signal for CGAUCGA (DNA:RNA) RNA: GGGAGACCGGAAUUCAGAUUGUCCCGAUCGAUUAAAUCCCGUCGUAGCCACCA DNA 1: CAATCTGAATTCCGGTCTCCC DNA 2: TGGTGGCTACGACGGGATT
0.0185 KA relative to UGCAUGU

Provide only the value of recorded binding signal for UUUCUUU (DNA:RNA) RNA: GGGAGACCGGAAUUCAGAUUGUCCUUUCUUUUUAAAUCCCGUCGUAGCCACCA DNA 1: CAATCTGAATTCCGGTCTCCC DNA 2: TGGTGGCTACGACGGGATT
0.0113 KA relative to UGCAUGU

These entries and their values trace back to paper PMC9911399.
